tgt: Epidermal growth factor receptor (Homo sapiens, UniProt P00533)
Sequence (P00533 whole entry): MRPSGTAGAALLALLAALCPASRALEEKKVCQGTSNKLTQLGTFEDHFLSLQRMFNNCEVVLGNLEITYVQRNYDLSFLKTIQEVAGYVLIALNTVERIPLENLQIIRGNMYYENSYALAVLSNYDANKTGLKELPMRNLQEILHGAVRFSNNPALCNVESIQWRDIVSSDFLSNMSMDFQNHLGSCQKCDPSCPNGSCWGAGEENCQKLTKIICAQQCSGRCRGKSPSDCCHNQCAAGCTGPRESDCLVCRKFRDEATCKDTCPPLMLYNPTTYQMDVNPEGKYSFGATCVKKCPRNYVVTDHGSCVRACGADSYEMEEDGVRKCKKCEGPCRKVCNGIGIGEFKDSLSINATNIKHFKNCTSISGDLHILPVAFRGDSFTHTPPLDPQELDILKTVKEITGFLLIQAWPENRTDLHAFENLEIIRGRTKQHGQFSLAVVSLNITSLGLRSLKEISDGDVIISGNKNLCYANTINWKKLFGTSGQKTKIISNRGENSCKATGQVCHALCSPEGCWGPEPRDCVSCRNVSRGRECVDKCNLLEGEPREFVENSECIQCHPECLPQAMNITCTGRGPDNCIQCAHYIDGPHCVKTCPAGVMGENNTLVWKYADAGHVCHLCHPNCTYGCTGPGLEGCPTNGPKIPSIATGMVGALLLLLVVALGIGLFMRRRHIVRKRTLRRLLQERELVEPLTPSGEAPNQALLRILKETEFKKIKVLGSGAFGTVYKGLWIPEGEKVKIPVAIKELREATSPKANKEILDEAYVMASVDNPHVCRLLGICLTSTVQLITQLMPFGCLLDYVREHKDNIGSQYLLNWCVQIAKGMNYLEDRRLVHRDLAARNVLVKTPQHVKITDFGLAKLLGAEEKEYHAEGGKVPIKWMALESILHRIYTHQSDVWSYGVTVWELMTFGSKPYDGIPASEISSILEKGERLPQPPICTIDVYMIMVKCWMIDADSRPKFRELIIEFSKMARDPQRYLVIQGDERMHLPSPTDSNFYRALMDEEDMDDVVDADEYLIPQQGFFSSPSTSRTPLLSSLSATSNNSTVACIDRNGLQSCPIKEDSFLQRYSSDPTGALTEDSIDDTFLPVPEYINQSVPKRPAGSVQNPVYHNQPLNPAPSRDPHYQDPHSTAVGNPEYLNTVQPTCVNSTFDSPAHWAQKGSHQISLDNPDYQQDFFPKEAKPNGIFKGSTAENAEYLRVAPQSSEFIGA
test method notes: In vitro inhibition of HER1 autophosphorylation.
pIC50: −log10 of the molar value.
Assign class by pIC50: not lower than 5 means 1 (yes); lower than 5 means 0 (no).

| test smiles | class assignment |
| --- | --- |
| N#C/C(=C\c1ccc(O)c(O)c1)C(=O)Nc1ccccc1Cl | 1 (yes) |
| N#C/C(=C\c1ccc(O)c(O)c1)C(=O)c1ccc(O)c(O)c1 | 1 (yes) |
| Cc1ccc(C(=O)/C(C#N)=C/c2ccc(O)c(O)c2)cc1 | 0 (no) |
| N#C/C(=C\c1ccc(O)c(O)c1)C(=O)c1ccccc1Cl | 1 (yes) |
| N#C/C(=C\c1ccc(O)c(O)c1)C(=O)c1ccccc1 | 0 (no) |
| N#C/C(=C\c1ccc(O)c(O)c1)C(=O)NCCc1ccccc1 | 1 (yes) |
| N#C/C(=C\c1ccc(O)c(O)c1)C(=O)NC1CCCCC1 | 1 (yes) |
| N#C/C(=C\c1ccc(O)c(O)c1)C(=O)c1cccs1 | 0 (no) |
| N#C/C(=C\c1ccc(O)c(O)c1)C(=O)NCCCCc1ccccc1 | 1 (yes) |
